Recorded measurements of Euclidean distance, one per entry
Test system: A549
Assay: Euclidean distance of Cell Painting phenotypic profile (signed KS, 77 features) to DMSO centroid (dimensionless distance); 5 or 10 uM (library dependent); higher = stronger phenotypic change vs DMSO (phenoactivity)
Details: 48 h
Counter-ions that a name gives are not always drawn.
recorded_metric: Euclidean distance

molecule: CC(=O)N1C[C@H](O)C[C@H]1C(=O)O
recorded_metric: Euclidean distance
measured_result: 0.845
--
molecule: CC1(C)CCC(C)(C)c2cc(NC(=O)c3ccc(C(=O)O)cc3)ccc21
recorded_metric: Euclidean distance
measured_result: 1.55
--
molecule: Cc1cc(NS(=O)(=O)c2ccc(N)cc2)nc(C)n1
recorded_metric: Euclidean distance
measured_result: 0.563
--
molecule: COc1ccccc1OCCNCC(O)COc1cccc2[nH]c3ccccc3c12 (centres undefined) [Carvedilol]
recorded_metric: Euclidean distance
measured_result: 1.04
--
molecule: COc1ccc(-c2ccc3cc(C(=O)O)ccc3c2)cc1C12CC3CC(CC(C3)C1)C2
recorded_metric: Euclidean distance
measured_result: 2.58
--
molecule: CC(C)(CO)[C@@H](O)C(=O)NCCCO
recorded_metric: Euclidean distance
measured_result: 0.791
--
molecule: Nc1nc(N)c2nc(-c3ccccc3)c(N)nc2n1
recorded_metric: Euclidean distance
measured_result: 2.17
--
molecule: Oc1ccc(OC2CCCCO2)cc1 (centres undefined)
recorded_metric: Euclidean distance
measured_result: 0.699
--
molecule: CCCc1nn(C)c2c(=O)[nH]c(-c3cc(S(=O)(=O)N4CCN(C)CC4)ccc3OCC)nc12 [Sildenafil Citrate]
recorded_metric: Euclidean distance
measured_result: 1.4

Attribution: the supplement of paper PMC10127200
